tested on: HCT116 (colon carcinoma human); assay: one spot 100 µg/ml cytotoxicity, HCT116; format: cell-based; settings: Homo sapiens, HCT-116, percent inhibition, read-out: one spot concentration inhibition, HCT116
inhibition at 100 µg/mL for assorted compounds
Answer with a number only, understood to be in %.

Reference set, count: 2
CSc1nc(C)c2c(c1C#N)CC(C)(O)C(C(C)=O)C2c1cccc([N+](=O)[O-])c1 (stereo not drawn) [Compound 3]: 67.1
CCOC(=O)CSc1nc(C)c2c(c1C#N)CC(C)(O)C(C(C)=O)C2c1cccc([N+](=O)[O-])c1 (stereo not drawn) [Compound 4]: 56.8

Lab note: next compound to report on.
inhibition at 100 µg/mL measured on CC(=O)c1ccc(NC(=O)CSc2nc(C)c3c(c2C#N)CC(C)(O)C(C(C)=O)C3c2cccc([N+](=O)[O-])c2)cc1 (stereo not drawn) [Compound 6a] = 58.1

###

tested on: HCT116 (colon carcinoma human); assay: one spot 100 µg/ml cytotoxicity, HCT116; assay type: cell-based; conditions: Homo sapiens, HCT-116, percent inhibition, read-out: one spot concentration inhibition, HCT116
Rule: inhibition at 100 µg/mL under 60% gives no, otherwise yes.

The examples below pair each entry with its known result.
CC(=O)C1C(c2cccc([N+](=O)[O-])c2)c2c(C)[nH]c(=S)c(C#N)c2CC1(C)O (stereo not shown): yes
CC(=O)C1C(c2cccc([N+](=O)[O-])c2)c2c(C)nc(SCC(=O)Nc3cccc4ccccc34)c(C#N)c2CC1(C)O (stereo not shown): no
CC(=O)C1C(c2ccc([N+](=O)[O-])cc2)c2c(C)nc(SCC(=O)Nc3cccc4ccccc34)c(C#N)c2CC1(C)O (stereo not shown): yes

Input line: Quick check: does CC(=O)C1C(c2ccc([N+](=O)[O-])cc2)c2c(C)nc3sc(C(=O)Nc4cccc5ccccc45)c(N)c3c2CC1(C)O (stereo not shown) have inhibition at 100 µg/mL greater than or equal to 60%?
Output line: no

Input line: Quick check: does COc1cccc2c1C(=O)c1c(O)c3c(c(O)c1C2=O)C[C@@](O)(C(=O)CO)C[C@@H]3O[C@H]1C[C@H](N)[C@H](O)[C@H](C)O1 [Doxorubicin, reference compound] have inhibition at 100 µg/mL greater than or equal to 60%?
Output line: yes

###

system: MCF7 (human breast carcinoma); test: one spot 100 µg/ml cytotoxicity, MCF7; assay type: cell-based; conditions: Homo sapiens, MCF7, percent inhibition, read-out: one spot concentration inhibition, MCF7
Rule: inhibition at 100 µg/mL under 70% gives 0, otherwise 1.

The examples below pair each entry with its known result.
COc1cccc2c1C(=O)c1c(O)c3c(c(O)c1C2=O)C[C@@](O)(C(=O)CO)C[C@@H]3O[C@H]1C[C@H](N)[C@H](O)[C@H](C)O1 [Doxorubicin, reference compound]: 1
CC(=O)c1ccc(NC(=O)CSc2nc(C)c3c(c2C#N)CC(C)(O)C(C(C)=O)C3c2cccc([N+](=O)[O-])c2)cc1 (stereo not drawn): 0
CC(=O)C1C(c2ccc([N+](=O)[O-])cc2)c2c(C)nc3sc(C(=O)Nc4cccc5ccccc45)c(N)c3c2CC1(C)O (stereo not drawn): 0
CCOC(=O)CSc1nc(C)c2c(c1C#N)CC(C)(O)C(C(C)=O)C2c1cccc([N+](=O)[O-])c1 (stereo not drawn): 1

Input line: Quick check: does CC(=O)C1C(c2ccc([N+](=O)[O-])cc2)c2c(C)nc(SCC#N)c(C#N)c2CC1(C)O (stereo not drawn) have inhibition at 100 µg/mL greater than or equal to 70%?
Output line: 0

Input line: Quick check: does CC(=O)C1C(c2cccc([N+](=O)[O-])c2)c2c(C)[nH]c(=S)c(C#N)c2CC1(C)O (stereo not drawn) have inhibition at 100 µg/mL greater than or equal to 70%?
Output line: 1
